Test system: CWR22R
procedure summary: Cytotoxicity against human 22Rv1 cells assessed as reduction in cell viability after 72 hrs by CellTiter96 AQueous one solution cell proliferation assay
Assay type: functional, cell-based
measurement parameters: 22Rv1, 72 h
Each entry below carries its reported pIC50.
Remember the convention: pIC50 equals -log10 of concentration in molar.

Below, each entry is followed by its recorded pIC50 result.
compound	observed value
CC1=C(C)C(=O)O[C@@H]([C@](C)(O)[C@]2(O)CC[C@@]3(O)[C@@H]4CC=C5CC=CC(=O)[C@]5(C)[C@H]4CC[C@]23C)C1 [WITHANOLIDE F]	7.15
CC1=C(C)C(=O)O[C@@H]([C@](C)(O)[C@]2(O)CC[C@@]3(O)[C@@H]4C[C@H]5O[C@]56CC=CC(=O)[C@]6(C)[C@H]4CC[C@]23C)C1 [WITHANOLIDE E]	7.15
CC1=C(C)C(=O)O[C@@H]([C@](C)(O)[C@]2(O)CC[C@@]3(O)[C@@H]4[C@@H](O)C=C5CC=CC(=O)[C@]5(C)[C@H]4CC[C@]23C)C1	6.25
C[C@H]1C[C@H]([C@](C)(O)[C@]2(O)CC[C@@]3(O)[C@@H]4C[C@H]5O[C@]56CC=CC(=O)[C@]6(C)[C@H]4CC[C@]23C)OC(=O)[C@@H]1C	6.68

# context switch: different compound, same pIC50
Prompt line: Field: pIC50 (CWR22R). Entry: `CC1=C(C)C(=O)O[C@@H]([C@](C)(O)[C@]2(O)CC[C@@]3(O)[C@@H]4[C@@H](O)[C@H]5O[C@]56CC=CC(=O)[C@]6(C)[C@H]4CC[C@]23C)C1`
Response line: 6.59

====

Tested on: HFF
procedure summary: Cytotoxicity against HFF cells assessed as reduction in cell viability up to 5 uM after 72 hrs by CellTiter96 AQueous one solution cell proliferation assay
Type: cell-based
measurement parameters: human
test readout: Activity

>>> print(df.to_string())
                               query_smiles  target_under_test  observed_value
0  CO[C@]12CC=CC(=O)[C@]1(C)[C@H]1CC[C@]3(C)[C@](O)([C@@](C)(O)[C@H]4CC(C)=C(C)C(=O)O4)CC[C@@]3(O)[C@@H]1C[C@H]2O                HFF       Non-Toxic
1  CC1=C(C)C(=O)O[C@@H]([C@](C)(O)C2=CC[C@@]3(O)[C@@H]4C[C@H]5O[C@]56[C@@H](O)C=CC(=O)[C@]6(C)[C@H]4CC[C@]23C)C1                HFF       Non-Toxic
2  C[C@H]1C(=O)OC[C@H]1C[C@@H](O)[C@](C)(O)[C@]1(O)CC[C@@]2(O)[C@@H]3CC=C4CC=CC(=O)[C@]4(C)[C@H]3CC[C@]12C                HFF       Non-Toxic

====

Test system: HFF
procedure summary: Cytotoxicity against HFF cells assessed as reduction in cell viability up to 5 uM after 72 hrs by CellTiter96 AQueous one solution cell proliferation assay
Type: cell-based
measurement parameters: human
test readout: Activity

>>> df
                               query_smiles  target_under_test  observed_value
0  C[C@H]1C(=O)OC[C@H]1C[C@@H](O)[C@](C)(O)[C@]1(O)CC[C@@]2(O)[C@@H]3CC=C4C=CCC(=O)[C@]4(C)[C@H]3CC[C@]12C                HFF       Non-Toxic
1  CC1=C(C)C(=O)O[C@@H]([C@](C)(O)[C@]2(O)CC[C@@]3(O)[C@@H]4C[C@H](Cl)[C@]5(O)[C@@H](O)C=CC(=O)[C@]5(C)[C@H]4CC[C@]23C)C1                HFF       Non-Toxic
2  CC1=C(C)C(=O)O[C@@H]([C@](C)(O)[C@]2(O)CC[C@@]3(O)[C@@H]4C[C@@H](O)[C@@]5(O)CC=CC(=O)[C@]5(C)[C@H]4CC[C@]23C)C1                HFF       Non-Toxic
